- PROTOCOL_SUMMARY: Inhibition of Methanobacterium thermoautotrophicum ODCase
- Parameters: species or system Methanothermobacter thermautotrophicus
MEASURE_NAME: pKi
Just the number, please; pKi means minus log10 of the concentration in mol/L.

Report pKi for [N-]=[N+]=Nc1cc(=O)[nH]c(=O)n1[C@@H]1O[C@H](COP(=O)(O)O)[C@@H](O)[C@H]1O please.
6.72

====

- PROTOCOL_SUMMARY: Stability assessed as half life of hydrolysis
- Assay type: physicochemical
MEASURE_NAME: half-life
Remember to put the unit after the number in your answer.

Which half-life value belongs to N#Cc1cc(=O)[nH]c(=O)n1[C@@H]1O[C@H](COP(=O)(O)O)[C@@H](O)[C@H]1O ?
5 h
